Test system: primary human T-cells
Assay: Proliferation assay after 5 days (CellTiter-Glo, CD3 stimulation; PBS counter screen)
Type: cell-based
Details: Homo sapiens, T-cell, 120 h, CD3 stimulation, 5 days; normalized to reference compound A1 as stimulator control = 100%, DMSO neutral control; read-out: Emax proliferation (% activation)
Each item that follows carries a reported Emax.
measuredQuantity: Emax (%)

{"columns": ["molecule", "unitLabel", "testResult"],
 "data": [
  ["CC(C)(C)c1cn(-c2cc3c(cc2F)S(=O)(=O)C[C@H](N)C(=O)N3Cc2ccc(Cl)cc2)nn1", "%", 154],
  ["CC(C)Oc1ccc(CN2C(=O)[C@@H](N)CS(=O)(=O)c3cc(F)c(-c4noc(C5CN(C)CC(F)(F)C5)n4)cc32)nc1 (some centres unmarked)", "%", 100],
  ["N[C@H]1CS(=O)(=O)c2cc(F)c(-c3noc(C4(CO)CCCO4)n3)cc2N(Cc2ccc(Cl)cc2)C1=O (some centres unmarked)", "%", 107],
  ["N[C@H]1CS(=O)(=O)c2cc(F)c(-c3nnc(N4CCC5(CC4)COC5)o3)cc2N(Cc2ccc(Cl)cc2)C1=O", "%", 87],
  ["CS(=O)(=O)N1CCCC(n2nnc(-c3cc4c(cc3F)S(=O)(=O)C[C@H](N)C(=O)N4Cc3ccc(Cl)cc3)n2)C1 (some centres unmarked)", "%", 136],
  ["NC(c1nc(-c2cc3c(cc2F)S(=O)(=O)C[C@H](N)C(=O)N3Cc2ccc(OC(F)(F)F)cc2)no1)C(F)(F)F (some centres unmarked)", "%", 70],
  ["COC(=O)N1CC(c2nnc(-c3cc4c(cc3F)S(=O)(=O)C[C@H](N)C(=O)N4Cc3ccc(Cl)cc3)o2)C1", "%", 190],
  ["CC(C)Oc1ccc(CN2C(=O)[C@@H](N)CS(=O)(=O)c3cc(F)c(-c4noc(N5CCOC6(CC6)C5)n4)cc32)cn1", "%", 275],
  ["N[C@H]1CS(=O)(=O)c2cc(F)c(-c3nnc(NC4CCC(F)(F)C4)o3)cc2N(Cc2ccc(Cl)cc2)C1=O (some centres unmarked)", "%", 99],
  ["COC(=O)N1CCC(C)(c2nnc(-c3cc4c(cc3F)S(=O)(=O)C[C@H](N)C(=O)N4Cc3ccc(Cl)cc3)o2)CC1", "%", 93],
  ["CC(C)(C)c1nnc(-c2ccc3c(c2)N(Cc2ccc(OCC(F)(F)F)cc2)C(=O)[C@@H](N)CS3(=O)=O)o1", "%", 103],
  ["CC(C)(C)c1nnc(-c2cc3c(cc2F)S(=O)(=O)C[C@H](N)C(=O)N3Cc2ccccc2Cl)o1", "%", 39],
  ["COC(F)(c1nc(-c2cc3c(cc2F)[S+]([O-])C[C@H](N)C(=O)N3Cc2ccc(F)cc2)no1)C(F)(F)F (some centres unmarked)", "%", 105],
  ["CC(C)(C)n1cc(-c2cc3c(cc2F)S(=O)(=O)C[C@H](N)C(=O)N3Cc2ccc(Cl)cc2)cn1", "%", 102]
]}

----------
Test system: MV-3 cells
Test: T-cell - TCB - MV3 killing assay (MCSP-TCB, RFP object count by Incucyte)
Type: cell-based, human
Conditions: normalized: MCSP-TCB only = neutral control, 20 μM reference compound A1 = 100%; 5 d
Listed compounds paired with reported MSCP TCB killing MV-3 cells 5 d Emax

{"columns": ["compound", "MSCP TCB killing MV-3 cells 5 d Emax, %"],
 "data": [
  ["CC(C)(C)c1nnc(-c2cc3c(cc2F)[S+]([O-])C[C@H](N)C(=O)N3Cc2ccc(Cl)cc2)o1 (single isomer, unassigned; epimer b) [Example 187]", 57],
  ["CC(C)(C)c1nnc(-c2cc3c(cc2F)S(=N)(=O)C[C@H](N)C(=O)N3Cc2ccc(OC(F)(F)F)cc2)o1 (single isomer, unassigned) [Example 518]", 78],
  ["CC(C)(C)c1nnc(-c2cc3c(cc2F)[S+]([O-])C[C@H](N)C(=O)N3Cc2ccc(OC(F)(F)F)cc2)o1 (single isomer, unassigned; epimer a) [Example 452]", 81],
  ["CC(C)(C)c1nnc(-c2cc3c(cc2F)[S+]([O-])C[C@H](N)C(=O)N3Cc2ccc(Cl)cc2)o1 (stereo partly shown) [Example 186]", 100]
]}

----------
Tested on: primary human T-cells
Test: Proliferation assay after 5 days (CellTiter-Glo, CD3 stimulation; PBS counter screen)
Type: cell-based
Settings: Homo sapiens, T-cell, 120 h, CD3 stimulation, 5 days; normalized to reference compound A1 as stimulator control = 100%, DMSO neutral control; read-out: Emax proliferation (% activation)
Protocol: Compounds are then added (see next section) to medium only plates. Cells are assessed for proliferation 5 days later by measuring […] using CellTiterGlo (Promega). After 5 days, for detection of ATP which is directly proportional to the number of cells present per well, the CellTiter-Glo® 2.0 Reagent is used. […] Luminescence is measured with PHERAstar FSX (interval time 0.5 sec, gain 3000, focal height 15 mm) and exported as CSV file for analysis in Genedata screener. […]

{"columns": ["molecule", "unitLabel", "Emax"],
 "data": [
  ["N[C@H]1CS(=O)(=O)c2cc(F)c(-c3nnc(NC4CC4)o3)cc2N(Cc2ccc(Cl)cc2)C1=O", "%", 89],
  ["Cc1ccc(-c2nnc(-c3ccc4c(c3)N(Cc3ccc(Cl)cc3)C(=O)[C@@H](N)CS4(=O)=O)o2)cc1", "%", 38],
  ["N[C@H]1CS(=O)(=O)c2ccc(-c3nnc(N4CC(CO)(CCl)C4)o3)cc2N(Cc2ccc(Cl)cc2)C1=O", "%", 72],
  ["COC(=O)N1CC2CC(c3nc(-c4cc5c(cc4F)S(=O)(=O)C[C@H](N)C(=O)N5Cc4ccc(OC(F)(F)C(F)F)cc4)no3)(C2)C1", "%", 162],
  ["N[C@H]1CS(=O)(=O)c2cc(F)c(-c3noc(NC4CCC4)n3)cc2N(Cc2ccc(Cl)cc2)C1=O", "%", 108],
  ["CN[C@@H](CO)C(=O)N[C@H]1CS(=O)(=O)c2cc(F)c(-c3nnc(C(C)(C)C)o3)cc2N(Cc2ccc(Cl)cc2)C1=O", "%", 67],
  ["Cc1cc2c(cc1-c1nnc(C(C)(C)C)o1)N(Cc1ccc(Cl)cc1)C(=O)[C@@H](N)CS2(=O)=O", "%", 102],
  ["CCc1nc(-c2cc3c(cc2F)S(=O)(=O)C[C@H](N)C(=O)N3Cc2ccc(Cl)cc2)n[nH]1", "%", 50],
  ["CN1CC(n2nnc(-c3cc4c(cc3F)S(=O)(=O)C[C@H](N)C(=O)N4Cc3ccccc3)n2)CC(F)(F)C1 (some centres unmarked)", "%", 74],
  ["N[C@H]1CS(=O)(=O)c2ccc(-c3nnc(C4CCCC(F)(F)C4)o3)cc2N(Cc2ccc(Cl)cc2)C1=O (some centres unmarked)", "%", 100],
  ["Cn1nnc(-c2cc3c(cc2F)S(=O)(=O)C[C@H](N)C(=O)N3Cc2ccc(Cl)cc2)n1", "%", 65],
  ["CC(C)(C)c1nnc(-c2cc3c(cc2F)S(=O)(=O)C[C@H](N)C(=O)N3Cc2ccc(OCCCCCCCCCCCNC(=O)CCC3=CC4=Cc5ccc(-c6ccc[nH]6)n5[B-](F)(F)[N+]4=C3)cc2)o1", "%", 134],
  ["N[C@H]1CS(=O)(=O)c2ccc(-c3nnc(C4(N)CCCCC4)o3)cc2N(Cc2ccc(OC(F)(F)F)cc2)C1=O", "%", 70],
  ["N[C@H]1CS(=O)(=O)c2cc(F)c(-c3noc(C4(N)COC4)n3)cc2N(Cc2ccc(OC(F)(F)F)cc2)C1=O", "%", 94]
]}

----------
Test system: primary human T-cells
Assay: Proliferation assay after 5 days (CellTiter-Glo, CD3 stimulation; PBS counter screen)
Format: cell-based
Settings: Homo sapiens, T-cell, 120 h, primary human T-cells, CD3 stimulation, CellTiter-Glo after 5 days; EC50 of fitted sigmoidal curve; read-out: Tcell Proliferation CD3 EC50
pEC50: −log10 of the molar value.
// pEC50 lookup, one value per entry

{"columns": ["compound", "studySystem", "relationSign", "pEC50"],
 "data": [
  ["COC(=O)N1CCC(c2nnc(-c3cc4c(cc3F)S(=O)(=O)C[C@H](N)C(=O)N4Cc3ccc(Cl)cc3)o2)C1 (stereo partly shown)", "primary human T-cells", "=", 6.04],
  ["N[C@H]1CS(=O)(=O)c2cc(F)c(-c3nnc(N4C[C@H]5C[C@@H](C4)C5(F)F)o3)cc2N(Cc2ccc(Cl)cc2)C1=O", "primary human T-cells", "=", 6.77],
  ["CC(C)(C)c1nnc(-c2ccc3c(c2)N(Cc2ccc(OCC(F)(F)F)cc2)C(=O)[C@@H](N)CS3(=O)=O)o1", "primary human T-cells", "=", 5.31],
  ["CN=S1(=O)C[C@H](N)C(=O)N(Cc2ccc(OC(F)(F)F)cc2)c2cc(-c3nnc(C(C)(C)C)o3)c(F)cc21 (stereo partly shown)", "primary human T-cells", "=", 5.36],
  ["N[C@H]1CS(=O)(=O)c2cc(F)c(-c3noc(N4CCNC(C(F)(F)F)C4)n3)cc2N(Cc2ccc(Cl)cc2)C1=O (stereo partly shown)", "primary human T-cells", "=", 6.48],
  ["N[C@H]1CS(=O)(=O)c2cc(F)c(-c3noc(NC4CC(F)(F)C4)n3)cc2N(Cc2ccc(Cl)cc2)C1=O", "primary human T-cells", "=", 6.80],
  ["CS(=O)(=O)N1CC(c2nnc(-c3cc4c(cc3F)S(=O)(=O)C[C@H](N)C(=O)N4Cc3ccc(Cl)cc3)o2)C2(CC2)C1 (stereo partly shown)", "primary human T-cells", "=", 5.37],
  ["N[C@H]1CS(=O)(=O)c2ccc(-c3nnc(N4CCC(F)(F)CC4)o3)cc2N(Cc2ccc(Cl)cc2)C1=O", "primary human T-cells", "=", 6.28],
  ["COc1ccc(CN2C(=O)[C@@H](N)CS(=O)(=O)c3cc(F)c(-c4nnc(C(C)(C)C)o4)cc32)nc1", "primary human T-cells", "=", 5.76],
  ["N[C@H]1CS(=O)(=O)c2cc(F)c(-c3noc(N4CCC(F)(F)CC4)n3)cc2N(Cc2ccc(Cl)cc2)C1=O", "primary human T-cells", "=", 6.93],
  ["CC(C)(C)c1nnc(-c2cc3c(cc2F)S(=O)(=O)C[C@H](N)C(=O)N3Cc2ccc(CN)cc2)o1", "primary human T-cells", "<", 4.70],
  ["COc1ccc(CN2C(=O)[C@@H](N)CS(=O)(=O)c3cc(F)c(-c4nnc(C(C)(C)C)o4)cc32)cc1", "primary human T-cells", "=", 7.05],
  ["CS(=O)(=O)N1CCCC(n2nnc(-c3cc4c(cc3F)S(=O)(=O)C[C@H](N)C(=O)N4Cc3ccc(Cl)cc3)n2)C1 (stereo partly shown)", "primary human T-cells", "=", 6.53],
  ["N[C@H]1CS(=O)(=O)c2ccc(-c3nnc(N4CC5(C4)CC(F)(F)C5)o3)cc2N(Cc2ccc(Cl)cc2)C1=O", "primary human T-cells", "=", 6.03],
  ["N[C@H]1CS(=O)(=O)c2cc(F)c(-c3nnc(NC4CC(F)(F)C4)o3)cc2N(Cc2ccc(Cl)cc2)C1=O", "primary human T-cells", "=", 6.25],
  ["CC(C)(C)c1nc(-c2cc3c(cc2F)S(=O)(=O)C[C@H](N)C(=O)N3Cc2ccc(Cl)cc2)no1", "primary human T-cells", "=", 6.73],
  ["N[C@H]1CS(=O)(=O)c2cc(F)c(-c3nnc(C(=O)N4[C@@H]5CCC[C@H]4CC5)o3)cc2N(Cc2ccc(Cl)cc2)C1=O", "primary human T-cells", "<", 5.56],
  ["N[C@H]1CS(=O)(=O)c2ccc(-c3nnc(N4CCOC(C(F)(F)F)C4)o3)cc2N(Cc2ccc(Cl)cc2)C1=O (stereo partly shown)", "primary human T-cells", "=", 6.75],
  ["CC(=O)N1CCCC(n2nnc(-c3cc4c(cc3F)S(=O)(=O)C[C@H](N)C(=O)N4Cc3ccc(Cl)cc3)n2)C1 (stereo partly shown)", "primary human T-cells", "=", 5.45],
  ["N[C@H]1CS(=O)(=O)c2cc(F)c(-c3noc(N4CCOC5CC54)n3)cc2N(Cc2ccc(Cl)cc2)C1=O (stereo partly shown)", "primary human T-cells", "=", 7.00],
  ["CC(C)(C)c1nnc(-c2cc3c(cc2F)SC[C@H](N)C(=O)N3Cc2ccc(OC(F)(F)F)cc2)o1", "primary human T-cells", "=", 5.95],
  ["N[C@H]1CS(=O)(=O)c2cc(F)c(-c3nnc(NC4CCC(F)(F)C4)o3)cc2N(Cc2ccc(Cl)cc2)C1=O (stereo partly shown)", "primary human T-cells", "=", 5.90],
  ["CS(=O)(=O)N1CC(n2nnc(-c3cc4c(cc3F)S(=O)(=O)C[C@H](N)C(=O)N4Cc3ccc(Cl)cc3)n2)CC(F)(F)C1 (stereo partly shown)", "primary human T-cells", "=", 6.23],
  ["CS(=O)(=O)N1CC2CC(c3nnc(-c4cc5c(cc4F)S(=O)(=O)C[C@H](N)C(=O)N5Cc4ccc(Cl)cc4)o3)(C2)C1", "primary human T-cells", "=", 5.35],
  ["CC[C@H](O)C(=O)N[C@H]1CS(=O)(=O)c2cc(F)c(-c3nnc(C(C)(C)C)o3)cc2N(Cc2ccc(Cl)cc2)C1=O", "primary human T-cells", "=", 5.74],
  ["N[C@H]1CS(=O)(=O)c2cc(F)c(-c3nnc(-c4ccccc4F)o3)cc2N(Cc2ccc(Cl)cc2)C1=O", "primary human T-cells", "=", 5.82],
  ["COC(=O)N1CCCC(c2nnc(-c3cc4c(cc3F)S(=O)(=O)C[C@H](N)C(=O)N4Cc3ccc(Cl)cc3)o2)C1 (stereo partly shown)", "primary human T-cells", "=", 6.51],
  ["CC(C)(C)c1nnc(-c2cc3c(cc2F)S(=O)(=O)C[C@H](N)C(=O)N3Cc2ccc(S(C)(=O)=O)cc2)o1", "primary human T-cells", "=", 5.78]
]}
